# EC50 (read off the curve) annotations
Experimental target: T1, human 4-1BB, full length, on transfected cells (human, UniProt Q07011 24-255)
T1 construct: whole, on cells; also called CHOK1-h4-1BB
T1 sequence (Q07011 24-255): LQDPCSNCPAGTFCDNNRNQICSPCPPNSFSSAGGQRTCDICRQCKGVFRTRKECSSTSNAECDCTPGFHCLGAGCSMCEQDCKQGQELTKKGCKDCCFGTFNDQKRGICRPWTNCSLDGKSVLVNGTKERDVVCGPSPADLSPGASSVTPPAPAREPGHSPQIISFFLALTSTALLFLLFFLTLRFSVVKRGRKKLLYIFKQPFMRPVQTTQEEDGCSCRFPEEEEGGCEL
Assay explanation: FACS on CHOK1-h4-1BB cells, Alexa 488 secondary antibody, average fluorescence intensity
Text: […]

Reference set (2 entries):
Binder: 170D7F2 (antibody, V domains shown) VH: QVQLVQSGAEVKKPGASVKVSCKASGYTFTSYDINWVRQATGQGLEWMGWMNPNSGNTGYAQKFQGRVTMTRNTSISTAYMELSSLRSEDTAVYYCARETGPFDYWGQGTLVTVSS VL: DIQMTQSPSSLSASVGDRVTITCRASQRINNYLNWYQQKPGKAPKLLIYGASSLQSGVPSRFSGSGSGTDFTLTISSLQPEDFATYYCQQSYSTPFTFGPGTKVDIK
EC50 (read off the curve): ~0.2 µg/mL
//
Binder: 172E3E3 (antibody, V domains shown) VH: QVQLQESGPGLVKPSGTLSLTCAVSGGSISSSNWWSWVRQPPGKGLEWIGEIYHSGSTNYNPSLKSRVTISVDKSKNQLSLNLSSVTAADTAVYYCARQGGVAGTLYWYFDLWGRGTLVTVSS VL: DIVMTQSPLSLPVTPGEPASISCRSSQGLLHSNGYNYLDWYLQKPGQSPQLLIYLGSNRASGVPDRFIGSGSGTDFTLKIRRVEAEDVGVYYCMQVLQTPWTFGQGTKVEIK
EC50 (read off the curve): ~0.1 µg/mL

Pending binder:
[in] What does the record list as EC50 (read off the curve) for 15G10D4 (antibody, V domains shown) VH: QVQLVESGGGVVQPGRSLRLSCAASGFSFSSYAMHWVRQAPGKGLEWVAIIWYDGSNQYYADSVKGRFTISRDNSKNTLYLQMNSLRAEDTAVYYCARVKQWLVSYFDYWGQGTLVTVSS VL: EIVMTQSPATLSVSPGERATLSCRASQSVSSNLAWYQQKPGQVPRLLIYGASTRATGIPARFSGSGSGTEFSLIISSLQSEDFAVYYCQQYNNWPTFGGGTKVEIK ?
[out] ~0.05 µg/mL
